Here, each record is paired with measured growth data.
Tested on: A498 renal
Protocol details: NCI-60 one-dose screen, 48 h (100 = growth as untreated, 0 = no growth, -100 = all killed)
Test settings: 10 µM unless noted
This is part of a sample that, as a whole, favours compounds with a hit. Of some 83,000 tested, about 20% had one in any assay. The source made the active and inactive calls. The calls were made as follows: active = growth percent below 10; inactive = the rest.

Cn1cc(-c2nnc(-c3cn(C)c4ncc(Br)cc34)s2)c2cc(Br)ccc21 :: 52.6% (inactive)
CCOc1ccc(/C=C(\C#N)c2cc3ccccc3[nH]2)cc1 :: 56.9% (inactive)
Cc1cc(C)c(O)c(CNCCCCCCNCc2cc(C)cc(C)c2O)c1 :: 21.4% (inactive)

Asked: Requested field: growth. Item: O=c1[nH]c(CN2CCN(c3cccc(Cl)c3)CC2)nc2cc(Cl)ccc12
Given back: 114% (inactive)

Asked: Requested field: growth. Item: Nc1nc(Cl)c2ncn(Cc3cc4c(cc3I)OCO4)c2n1
Given back: 61.8% (inactive)

Asked: Requested field: growth. Item: CCN(CC)c1ccc(/C=C/c2ccc3cc(C)ccc3[n+]2CC)cc1
Given back: 5.43% (active)

* * *

System: NCI-H226 lung
Protocol details: NCI-60 one-dose screen, 48 h
Test settings: 10 µM unless noted
About 83,000 compounds went through this panel and 20% of them were active in at least one assay; those are over-represented in the sample as a whole. Calls of active or inactive are those of the source. The calls were made as follows: active = growth percent below 10; inactive = the rest.
Pick one and only one: active, inactive

Asked: Give the logged outcome of this assay for the following compound: CC[C@@](C)(NC(=O)[C@H](C)NC(=O)CCNC(=O)C(C)(C)NC(=O)[C@H](C)NC(=O)[C@@H]1CCCN1C(=O)[C@@](C)(CC)NC(=O)[C@H](Cc1ccccc1)NC(=O)C1CCCN1C(=O)C(C)(C)NC(=O)C1CCCN1C(=O)C(C)(C)NC(C)=O)C(=O)NCCC(=O)N[C@@H](CC(C)C)C(=O)NC(C)(C)C(=O)NCCC(=O)N[C@@H](CC(C)C)C(=O)NC(C)(C)C(=O)NC(C)(C)C(=O)N[C@@H](CC(C)C)C(=O)NCCC(=O)NCO (stereo partly drawn)
Given back: active

Asked: Give the logged outcome of this assay for the following compound: Fc1cc2[nH]ncc2c2c3c(c(-c4cn[nH]c4C(F)(F)F)nc12)C1CCC3C1 (stereo not drawn)
Given back: active

Asked: Give the logged outcome of this assay for the following compound: C=C(C)[C@@H]1CC[C@]2(COCCCN)CC[C@]3(C)[C@H](CC[C@@H]4[C@@](C)(CCCNCCCN)[C@H](C(=C)C)CC[C@]43C)[C@@H]12
Given back: active

* * *

Test system: SK-OV-3 ovarian
Protocol details: NCI-60 one-dose screen, 48 h
Test settings: 10 µM unless noted
The panel holds about 83,000 compounds, 20% with a hit somewhere; the sample as a whole holds those more often. Activity calls are given as the source filed them. The calls were made as follows: active = growth percent below 10; inactive = the rest.
Pick one and only one: True = active, False = inactive

CSc1nc(N)c(N=Nc2ccc(S(=O)(=O)Nc3nnc(C)s3)cc2)c(=O)[nH]1 :: False
COc1cc(/C=C/C(=O)/C=C/c2ccc(-n3ccnc3)cc2)ccc1O :: False

Asked: Give the logged outcome of this assay for the following molecule: O=C(Nc1cc(-c2cccnc2)nc(NCCCN2CCOCC2)n1)c1cc(Br)cc(C(F)(F)F)c1
Given back: False

Asked: Give the logged outcome of this assay for the following molecule: O=C(N[C@@H]1CCCc2ccccc21)[C@H](CCC(=O)N1CCN(C2CCCCC2)CC1)N1C(=O)[C@@H](N2C(=O)OC[C@@H]2c2ccccc2)[C@H]1/C=C/c1ccccc1
Given back: False

Asked: Give the logged outcome of this assay for the following molecule: CCN(CC)c1ccc(/C=C/c2ccc3cc(C)ccc3[n+]2CC)cc1
Given back: True

Asked: Give the logged outcome of this assay for the following molecule: C[C@]12CCc3c(ccc4cc(O)ccc34)[C@@H]1CC[C@H]2O
Given back: False

Asked: Give the logged outcome of this assay for the following molecule: COc1ccc(-c2c(C)nn3c(NCCN4CCOCC4)cc(C)nc23)cc1OC
Given back: False

Asked: Give the logged outcome of this assay for the following molecule: O=C(NCCCNC(=O)OCc1ccc2cccc(O)c2n1)OCc1ccc2cccc(O)c2n1
Given back: False

Asked: Give the logged outcome of this assay for the following molecule: c1ccc2c(c1)CN(CCCN1CCOCC1)C2
Given back: False

* * *

Test system: RXF 393 renal
Protocol details: NCI-60 one-dose screen, 48 h
Test settings: 10 µM unless noted
This is part of a sample that, as a whole, favours compounds with a hit. Of some 83,000 tested, about 20% had one in any assay. The source made the active and inactive calls. The calls were made as follows: active = growth percent below 10; inactive = the rest.
Pick one and only one: true (1) (active), false (0) (inactive)

Examples from the recorded data:
CCCCCCNC(=O)Nc1ncnc2c1ncn2-c1ccccc1 :: false (0)
Cc1ccc(S(=O)(=O)N/N=C2\CC3CCC2(C)C3(C)C)cc1 (stereo not given) :: false (0)
Oc1ccc(N=Nc2nccs2)c(O)c1 :: false (0)
CC(C)C1=NOC(=O)C1=Cc1cn(-c2ccccc2)nc1-c1ccc(Cl)cc1 :: false (0)

Asked: Give the logged outcome of this assay for the following molecule: COc1ccc(C(C(=O)O)c2ccc(OC)cc2)cc1
Given back: false (0)

Asked: Give the logged outcome of this assay for the following molecule: C=C(C)[C@@H]1CC[C@]2(c3ncc(C)o3)CC[C@]3(C)[C@H](CC[C@@H]4[C@@](C)(CCC#N)[C@H](C(=C)C)CC[C@]43C)[C@@H]12
Given back: true (1)

* * *

System: COLO 205 colon
Protocol details: NCI-60 one-dose screen, 48 h
Test settings: 10 µM unless noted
This is part of a sample that, as a whole, favours compounds with a hit. Of some 83,000 tested, about 20% had one in any assay. Calls of active or inactive are those of the source. The calls were made as follows: active = growth percent below 10; inactive = the rest.
Pick one and only one: label 1 for active, label 0 for inactive

C=CCCCCOc1ccccc1-c1cnc(OCCCCC=C)n1C :: label 0
C=C(C)[C@@H]1CC[C@]2(C(=O)OC)CC[C@]3(C)[C@H](CC[C@@H]4[C@@](C)(CCc5nn[nH]n5)[C@H](C(=C)C)CC[C@]43C)[C@@H]12 :: label 1
CCC(C)[C@H](NC(=O)NC(=O)NC(=O)CI)C(=O)OC (some centres undefined) :: label 0

Could you now consider this next molecule?
Asked: Give the logged outcome of this assay for the following molecule: C[C@H]1[C@H](C)CC[C@]2(C(=O)O)CC[C@]3(C)C(=CC[C@@H]4[C@@]5(C)C/C(=C/c6cccnc6)[C@H](O)C(C)(C)[C@@H]5CC[C@]43C)[C@H]12
Given back: label 1

* * *

System: SW-620 colon
Protocol details: NCI-60 one-dose screen, 48 h
Test settings: 10 µM unless noted
This is part of a sample that, as a whole, favours compounds with a hit. Of some 83,000 tested, about 20% had one in any assay. Active and inactive are the calls of the source. Rule for the calls: active = growth percent below 10; inactive = the rest.
Pick one and only one: active, inactive

Asked: Give the logged outcome of this assay for the following molecule: C=CC1=C(C)C2=NC1=CC1=NC(=CC3=C(C)C4=C(O)C(C(=O)O)C(=C5NC(=C2)C(C)C5CCC(=O)O)C4=N3)C(CC)=C1C (centres undefined)
Given back: inactive

Asked: Give the logged outcome of this assay for the following molecule: C=C(C)[C@@H]1CC[C@]2(C)[C@H](CC[C@@H]3[C@@H]([C@@](C)(O)CCC=C(C)C)CC[C@]32C)[C@@]1(C)CCC(=O)N1CCN(C)CC1
Given back: active

Asked: Give the logged outcome of this assay for the following molecule: CC1(C)C(=O)/C(=C\c2cccnc2)C[C@]2(C)[C@H]3CC[C@@H]4[C@H]5[C@H](C(=O)/C=C/c6cccnc6)CC[C@]5(C(=O)O)CC[C@@]4(C)[C@]3(C)CC[C@@H]12
Given back: active

Asked: Give the logged outcome of this assay for the following molecule: C=CCc1nc2ccccc2s1
Given back: inactive

* * *

Test system: COLO 205 colon
Protocol details: NCI-60 one-dose screen, 48 h
Test settings: 10 µM unless noted
Description: Cells are grown in 96 well plates and exposed to the test compound for 48 hours. Compounds are tested at a single concentration, which is 10^-5 M for most compounds. The reported endpoint is percent growth (GI% or GIPRCNT), where numbers from 0 - 100% represent growth inhibition, and numbers from -100% - 0 represent cell death. For example, a value of 40 represents 60% growth inhibition. A value of 0 means no net growth occurred over the course of the experiment. […]
The panel holds about 83,000 compounds, 20% with a hit somewhere; the sample as a whole holds those more often. Active and inactive are the calls of the source. How the source made its calls: active means growth percent below 10; inactive means the rest.
Pick one and only one: label 1 for active, label 0 for inactive

Examples from the recorded data:
Nc1cccc2c1C(=O)c1cccc(NC(=O)c3ccccc3)c1C2=O :: label 1
CCn1cc(-c2cc(-c3ccc(Cl)cc3)nc(N)n2)c(-c2ccc(Br)cc2)n1 :: label 0
CN(Cc1cccc(C(F)(F)F)c1)C(=O)[C@@H](CC(=O)N1CCC(N2CCCCC2)CC1)N1C(=O)[C@@H](N2C(=O)OC[C@@H]2c2ccccc2)[C@H]1/C=C/c1ccccc1 :: label 0

Could you now consider this next molecule?
Asked: Give the logged outcome of this assay for the following molecule: C=C(C)[C@@H]1CC[C@]2(C)[C@H](C(=O)C=C3[C@@H]4C[C@](C)(C(=O)N5CCN(C)CC5)CC[C@]4(C)CC[C@]32C)[C@@]1(C)CCC#N
Given back: label 1
